Target: Tubulin beta chain (Bos taurus, UniProt Q6B856)
Sequence (Q6B856 whole entry): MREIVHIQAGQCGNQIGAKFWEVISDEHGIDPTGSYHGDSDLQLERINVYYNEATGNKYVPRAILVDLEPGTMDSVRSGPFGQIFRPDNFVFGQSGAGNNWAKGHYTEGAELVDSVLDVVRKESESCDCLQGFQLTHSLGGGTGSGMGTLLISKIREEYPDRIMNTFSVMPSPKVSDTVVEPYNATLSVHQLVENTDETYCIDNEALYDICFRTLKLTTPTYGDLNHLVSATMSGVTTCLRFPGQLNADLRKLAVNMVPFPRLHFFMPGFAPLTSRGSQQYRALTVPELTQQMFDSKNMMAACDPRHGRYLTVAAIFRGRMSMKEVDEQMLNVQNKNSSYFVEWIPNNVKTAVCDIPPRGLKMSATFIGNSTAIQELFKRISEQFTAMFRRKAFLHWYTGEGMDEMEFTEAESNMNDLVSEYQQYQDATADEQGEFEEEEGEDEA
Experiment: Inhibition of tubulin polymerization
measure: IC50 (nM)

// solved cases for IC50 follow
{"mol smiles": "Oc1cc(-c2cccs2)nc2cc3c(cc12)OCO3", "experimental system": "Tubulin beta chain (Bos taurus, UniProt Q6B856)", "IC50 (nM)": 2200}
{"mol smiles": "COc1ccc(OC)c(-c2cc(O)c3cc4c(cc3n2)OCO4)c1", "experimental system": "Tubulin beta chain (Bos taurus, UniProt Q6B856)", "IC50 (nM)": 5500}
{"mol smiles": "COc1cccc(-c2cc(O)c3cc(OC)ccc3n2)c1", "experimental system": "Tubulin beta chain (Bos taurus, UniProt Q6B856)", "IC50 (nM)": 740}
{"mol smiles": "COc1ccc2nc(-c3cccc(N(C)C)c3)cc(O)c2c1", "experimental system": "Tubulin beta chain (Bos taurus, UniProt Q6B856)", "IC50 (nM)": 840}
{"mol smiles": "COc1cc2nc(-c3ccccc3)cc(O)c2cc1OC", "experimental system": "Tubulin beta chain (Bos taurus, UniProt Q6B856)", "IC50 (nM)": 18000}
{"mol smiles": "Oc1cc(-c2ccc3c(c2)OCO3)nc2cc3c(cc12)OCO3", "experimental system": "Tubulin beta chain (Bos taurus, UniProt Q6B856)", "IC50 (nM)": 1100}

(P) COc1cccc(-c2cc(O)c3cc4c(cc3n2)OCO4)c1
(Q) Oc1cc(/C=C/c2ccccc2)nc2cc3c(cc12)OCO3
// task: argmin of IC50 over [ P , Q ] Answer by quoting the chosen item's label. P

---

Tested on: OVCAR-3
Assay: In vitro inhibition of tumor cell growth of OVCAR-3, ovarian cancer cell line
Type: functional
Conditions: Homo sapiens
measure: GI50

// solved cases for GI50 follow
{"mol smiles": "COc1cc(-c2cc(O)c3cc4c(cc3n2)OCO4)cc(OC)c1OC", "experimental system": "OVCAR-3", "assay result": "> 100 µM"}
{"mol smiles": "Oc1cc(-c2c[nH]c3ccccc23)nc2cc3c(cc12)OCO3", "experimental system": "OVCAR-3", "assay result": "> 100 µM"}
{"mol smiles": "COc1cc2nc(-c3cccc(N(C)C)c3)cc(O)c2cc1OC", "experimental system": "OVCAR-3", "assay result": "< 1 µM"}

Field GI50 (entry `COc1ccc(-c2cc(O)c3cc(Cl)ccc3n2)cc1` ) reads > 100 µM

Field GI50 (entry `COc1ccc(-c2cc(O)c3ccc(F)cc3n2)cc1` ) reads > 100 µM

Field GI50 (entry `COc1cc(-c2cc(O)c3ccccc3n2)cc(OC)c1OC` ) reads > 100 µM

---

System: KM-20L2
Experiment: In vitro inhibition of tumor cell growth of KM20L2, colon cancer cell line
Type: functional
Details: Homo sapiens
GI50 values by entry

{"mol smiles": "COc1ccc(-c2cc(O)c3cc(OC)ccc3n2)cc1", "GI50": "> 100 µM"}
{"mol smiles": "CN(C)c1ccc(-c2cc(O)c3cc4c(cc3n2)OCO4)cc1", "GI50": "> 100 µM"}
{"mol smiles": "CN(C)c1ccc(-c2cc(O)c3ccccc3n2)cc1", "GI50": "> 100 µM"}
{"mol smiles": "COc1ccc(-c2cc(O)c3cc4c(cc3n2)OCO4)cc1", "GI50": "> 100 µM"}

Value sought: GI50, system KM-20L2, item `COc1ccc(-c2cc(O)c3cc(Cl)ccc3n2)cc1` . Result: > 100 µM

Value sought: GI50, system KM-20L2, item `COc1ccc(-c2cc(O)c3cc4c(cc3n2)OCO4)cc1OC` . Result: > 100 µM
